System: Rat neutrophils
Assay: Test for elastase production by fMLP stimulation (elastase release inhibition)
Assay type: cell-based
Details: Neutrophil; elastase release from cytochalasin B-primed rat neutrophils stimulated with fMLP (1 μM); elastase activity in supernatant
In this section we review reported IC50 values for a set of molecules.
Report the figure in µM without appending any unit label.

Recorded results for 3 molecules are shown here.
molecule	IC50 [µM]
CCCC[C@@H](O)C#CCCCCCCCCCCCCCC(=O)O [Compound 4, (R)-17-Hydroxyheneicos-15-ynoic acid]	10.3
CCCC[C@@H](O)C#CCCCCCCCCCCCCC(=O)O [Compound 12, (R)-16-Hydroxyeicos-14-ynoic acid]	9.18
CCCC[C@@H](O)/C=C\CCCCCCCCCCCC(=O)O [Compound 65, (R)-(Z)-15-Hydroxynonadec-13-enoic acid]	17.5

*Q* Would you kindly share the measured IC50 for CCCC[C@@H](O)/C=C\CCCCCCCCCCCCC(=O)O [Compound 50, (R)-(Z)-16-Hydroxyeicos-14-enoic acid] ?
*A* 8.29

These measurements were taken from patent US20050038259A1.
